Measured T/C of individual entries
test system: CD2F1 mice, L1210 leukemia ip, survival T/C; assay: NCI In Vivo Anticancer Drug Screen. Data for tumor model L1210 Leukemia (intraperitoneal) in CD2F1 (CDF1) mice; details: endpoint: mean survival time; dose: 50.0 mg/kg/injection; schedule: Q04DX002 (ip); vehicle: saline with Tween-80; higher = longer survival
Toxic doses and inconclusive results are not listed.

O=C(c1ccccc1)N(C(=O)c1ccccc1)c1cccc(N(C(=O)c2ccccc2)C(=O)c2ccccc2)n1 | 101 % of control
CN1CC2C3CCC(C3)C2(C)C1O (stereo unspecified) | 103 % of control
COc1cc([N+](=O)[O-])c(C)[n+]([O-])n1 | 104 % of control
COC(=O)c1cccn1C(=O)c1cc(OC)c(OC)cc1[N+](=O)[O-] | 96 % of control
CCOC(=O)C(CCC(O)C#N)(NC(C)=O)C(=O)OCC (stereo unspecified) | 96 % of control

# query: T/C of entry N#Cc1nc(-c2ccco2)c(-c2ccco2)nc1C#N 90 % of control
